Catalogue of IC50 values
# Test system: A2780
# test details: Cytotoxicity against human A2780 cells after 96 hrs by MTT assay
# Type: functional, cell-based
# cond: A2780, 96 h

smiles structure	IC50 / nM
COC(=O)c1cc(-c2ccc(NC(=O)CCCOc3cc4c(cc3OC)C(=O)N3CCC[C@H]3C=N4)cc2)cn1C	1.87
CCOC(=O)c1nc(NC(=O)c2cc(-c3ccc(NC(=O)CCCOc4cc5c(cc4OC)C(=O)N4CCC[C@H]4C=N5)cc3)cn2C)cn1C	0.15
COc1cc2c(cc1OCCCC(=O)O)N=C[C@@H]1CCCN1C2=O	3760
COC(=O)c1cc(-c2ccc(NC(=O)c3cc(-c4ccc(NC(=O)CCCOc5cc6c(cc5OC)C(=O)N5CCC[C@H]5C=N6)cc4)cn3C)cc2)cn1C	0.56

----------
# test details: Binding affinity to AT-rich FAM-TATAAGATTTTCTTATA-TAMRA DNA (unknown origin) assessed as change in melting temperature at 1 uM by FRET assay
parameter measured: ΔTm (°C)

smiles structure	measurement
COC(=O)c1cc(NC(=O)c2cc(NC(=O)CCCOc3cc4c(cc3OC)C(=O)N3CCC[C@H]3C=N4)cn2C)cn1C	7.4
COC(=O)c1cc(-c2ccc(NC(=O)c3cc(NC(=O)CCCOc4cc5c(cc4OC)C(=O)N4CCC[C@H]4C=N5)cn3C)cc2)cn1C	5
COC(=O)c1nc(NC(=O)c2cc(NC(=O)c3cc(-c4ccc(NC(=O)CCCOc5cc6c(cc5OC)C(=O)N5CCC[C@H]5C=N6)cc4)cn3C)cn2C)cn1C	3.4
COC(=O)c1cc(-c2ccc(NC(=O)c3cc(-c4ccc(NC(=O)CCCOc5cc6c(cc5OC)C(=O)N5CCC[C@H]5C=N6)cc4)cn3C)cc2)cn1C	0.8
COC(=O)c1cc(NC(=O)c2cc(-c3ccc(NC(=O)CCCOc4cc5c(cc4OC)C(=O)N4CCC[C@H]4C=N5)cc3)cn2C)cn1C	2.1
COC(=O)c1cc(-c2ccc(NC(=O)c3nc(NC(=O)CCCOc4cc5c(cc4OC)C(=O)N4CCC[C@H]4C=N5)cn3C)cc2)cn1C	6

----------
# test details: Selectivity ratio of deltaTm for GC-rich FAM-GCGCAGATTTTCTGCGC-TAMRA DNA (unknown origin) to deltaTm for AT-rich FAM-TATAAGATTTTCTTATA-TAMRA DNA (unknown origin)
Given measured Ratio, output label 1 if it is greater than or equal to 4 and label 0 if not.

smiles structure	category
COC(=O)c1cc(-c2ccc(NC(=O)c3nc(NC(=O)CCCOc4cc5c(cc4OC)C(=O)N4CCC[C@H]4C=N5)cn3C)cc2)cn1C	label 0
COC(=O)c1cc(-c2ccc(NC(=O)c3cc(-c4ccc(NC(=O)CCCOc5cc6c(cc5OC)C(=O)N5CCC[C@H]5C=N6)cc4)cn3C)cc2)cn1C	label 0
COc1cc2c(cc1OCCCC(=O)O)N=C[C@@H]1CCCN1C2=O	label 0
COC(=O)c1cc(NC(=O)c2cc(NC(=O)c3cc(-c4ccc(NC(=O)CCCOc5cc6c(cc5OC)C(=O)N5CCC[C@H]5C=N6)cc4)cn3C)cn2C)cn1C	label 0
CCOC(=O)c1nc(NC(=O)c2cc(-c3ccc(NC(=O)CCCOc4cc5c(cc4OC)C(=O)N4CCC[C@H]4C=N5)cc3)cn2C)cn1C	label 1
COC(=O)c1cc(-c2ccc(NC(=O)CCCOc3cc4c(cc3OC)C(=O)N3CCC[C@H]3C=N4)cc2)cn1C	label 1
COC(=O)c1cc(NC(=O)c2cc(NC(=O)CCCOc3cc4c(cc3OC)C(=O)N3CCC[C@H]3C=N4)cn2C)cn1C	label 0

----------
# Tested on: MCF7
# test details: Cytotoxicity against human MCF7 cells after 96 hrs by MTT assay
# Format: functional, cell-based
# cond: MCF7, 96 h
Criterion: IC50 strictly under 0.3 nM. Met: 1 (yes). Not met: 0 (no).

smiles structure	category
COC(=O)c1cc(-c2ccc(NC(=O)CCCOc3cc4c(cc3OC)C(=O)N3CCC[C@H]3C=N4)cc2)cn1C	0 (no)
COC(=O)c1cc(-c2ccc(N)cc2)cn1C	0 (no)
COC(=O)c1cc(NC(=O)c2cc(NC(=O)CCCOc3cc4c(cc3OC)C(=O)N3CCC[C@H]3C=N4)cn2C)cn1C	0 (no)
COC(=O)c1cc(-c2ccc(NC(=O)c3cc(-c4ccc(NC(=O)CCCOc5cc6c(cc5OC)C(=O)N5CCC[C@H]5C=N6)cc4)cn3C)cc2)cn1C	0 (no)
COC(=O)c1nc(NC(=O)c2cc(NC(=O)c3cc(-c4ccc(NC(=O)CCCOc5cc6c(cc5OC)C(=O)N5CCC[C@H]5C=N6)cc4)cn3C)cn2C)cn1C	1 (yes)
COC(=O)c1cc(NC(=O)c2cc(-c3ccc(NC(=O)CCCOc4cc5c(cc4OC)C(=O)N4CCC[C@H]4C=N5)cc3)cn2C)cn1C	0 (no)
CCOC(=O)c1nc(NC(=O)c2cc(-c3ccc(NC(=O)CCCOc4cc5c(cc4OC)C(=O)N4CCC[C@H]4C=N5)cc3)cn2C)cn1C	0 (no)
COC(=O)c1cc(NC(=O)c2cc(NC(=O)c3cc(-c4ccc(NC(=O)CCCOc5cc6c(cc5OC)C(=O)N5CCC[C@H]5C=N6)cc4)cn3C)cn2C)cn1C	0 (no)
COC(=O)c1cc(-c2ccc(NC(=O)c3cc(NC(=O)CCCOc4cc5c(cc4OC)C(=O)N4CCC[C@H]4C=N5)cn3C)cc2)cn1C	1 (yes)
COC(=O)c1cc(-c2ccc(NC(=O)c3nc(NC(=O)CCCOc4cc5c(cc4OC)C(=O)N4CCC[C@H]4C=N5)cn3C)cc2)cn1C	1 (yes)
COc1cc2c(cc1OCCCC(=O)O)N=C[C@@H]1CCCN1C2=O	0 (no)

----------
# test details: Toxicity in ip dosed Swiss Webster mouse
# Assay type: organism-based
# cond: in vivo
Catalogue of MTD values

smiles structure	units symbol	MTD
COC(=O)c1cc(-c2ccc(NC(=O)c3cc(NC(=O)CCCOc4cc5c(cc4OC)C(=O)N4CCC[C@H]4C=N5)cn3C)cc2)cn1C	mg/kg/day	0.4
COC(=O)c1cc(-c2ccc(NC(=O)c3nc(NC(=O)CCCOc4cc5c(cc4OC)C(=O)N4CCC[C@H]4C=N5)cn3C)cc2)cn1C	mg/kg/day	0.4

----------
# System: MIA PaCa-2
# test details: Cytotoxicity against human MIAPaCa2 cells after 96 hrs by MTT assay
# Assay type: functional, cell-based
# cond: MIA PaCa-2, 96 h
parameter measured: log10(IC50) (log10 of the value in nM)

smiles structure	log10(IC50)
CCOC(=O)c1nc(NC(=O)c2cc(-c3ccc(NC(=O)CCCOc4cc5c(cc4OC)C(=O)N4CCC[C@H]4C=N5)cc3)cn2C)cn1C	-0.96
COC(=O)c1cc(NC(=O)c2cc(NC(=O)CCCOc3cc4c(cc3OC)C(=O)N3CCC[C@H]3C=N4)cn2C)cn1C	0.38
COC(=O)c1cc(NC(=O)c2cc(-c3ccc(NC(=O)CCCOc4cc5c(cc4OC)C(=O)N4CCC[C@H]4C=N5)cc3)cn2C)cn1C	-0.47
COC(=O)c1cc(-c2ccc(NC(=O)c3cc(-c4ccc(NC(=O)CCCOc5cc6c(cc5OC)C(=O)N5CCC[C@H]5C=N6)cc4)cn3C)cc2)cn1C	-0.46
COc1cc2c(cc1OCCCC(=O)O)N=C[C@@H]1CCCN1C2=O	3.19
COC(=O)c1cc(-c2ccc(NC(=O)CCCOc3cc4c(cc3OC)C(=O)N3CCC[C@H]3C=N4)cc2)cn1C	0.08
COC(=O)c1cc(NC(=O)c2cc(NC(=O)c3cc(-c4ccc(NC(=O)CCCOc5cc6c(cc5OC)C(=O)N5CCC[C@H]5C=N6)cc4)cn3C)cn2C)cn1C	-0.51
COC(=O)c1nc(NC(=O)c2cc(NC(=O)c3cc(-c4ccc(NC(=O)CCCOc5cc6c(cc5OC)C(=O)N5CCC[C@H]5C=N6)cc4)cn3C)cn2C)cn1C	-0.60

----------
# test details: Selectivity ratio of deltaTm for GC-rich FAM-GCGCAGATTTTCTGCGC-TAMRA DNA (unknown origin) to deltaTm for AT-rich FAM-TATAAGATTTTCTTATA-TAMRA DNA (unknown origin)
parameter measured: Ratio

smiles structure	measurement
COC(=O)c1cc(-c2ccc(NC(=O)c3cc(NC(=O)CCCOc4cc5c(cc4OC)C(=O)N4CCC[C@H]4C=N5)cn3C)cc2)cn1C	0.28
COC(=O)c1cc(NC(=O)c2cc(-c3ccc(NC(=O)CCCOc4cc5c(cc4OC)C(=O)N4CCC[C@H]4C=N5)cc3)cn2C)cn1C	1.48
COC(=O)c1nc(NC(=O)c2cc(NC(=O)c3cc(-c4ccc(NC(=O)CCCOc5cc6c(cc5OC)C(=O)N5CCC[C@H]5C=N6)cc4)cn3C)cn2C)cn1C	1.7
